Target: MAPKAP-K2 (substrate of Table 1, construct not stated), P49137
Sequence (P49137 46-400): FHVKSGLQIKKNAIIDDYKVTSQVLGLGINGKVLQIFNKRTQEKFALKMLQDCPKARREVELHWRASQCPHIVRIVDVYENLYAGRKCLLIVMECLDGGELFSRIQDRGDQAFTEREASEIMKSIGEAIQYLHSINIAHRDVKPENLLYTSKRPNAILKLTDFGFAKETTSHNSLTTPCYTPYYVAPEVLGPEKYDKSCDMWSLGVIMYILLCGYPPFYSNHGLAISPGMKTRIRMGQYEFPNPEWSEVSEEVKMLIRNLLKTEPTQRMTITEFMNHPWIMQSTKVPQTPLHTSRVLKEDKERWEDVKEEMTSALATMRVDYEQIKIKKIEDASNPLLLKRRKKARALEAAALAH
readout-name: rate of phosphorylation of substrate (1 µM) relative to MBP (% of rate with MBP)
Respond with the number and no other words.

Observe how each entry below is paired with its result.
stdin: Determine from records and report rate of phosphorylation of substrate (1 µM) relative to MBP (% of rate with MBP) for human GST-SAPK4 (protein) MSLIRKKGFYKQDVNKTAWELPKTYVSPTHVGSGAYGSVCSAIDKRSGEKVAIKKLSRPFQSEIFAKRAYRELLLLKHMQHENVIGLLDVFTPASSLRNFYDFYLVMPFMQTDLQKIMGMEFSEEKIQYLVYQMLKGLKYIHSAGVVHRDLKPGNLAVNEDCELKILDFGLARHADAEMTGYVVTRWYRAPEVILSWMHYNQTVDIWSVGCIMAEMLTGKTLFKGKDYLDQLTQILKVTGVPGTEFVQKLNDKAAKSYIQSLPQTPRKDFTQLFPRASPQAADLLEKMLELDVDKRLTAAQALTHPFFEPFRDPEEETEAQQPFDDSLEHEKLTVDEWKQHIYKEIVNFSPIARKDSRRRSGMKL
stdout: 28

stdin: Determine from records and report rate of phosphorylation of substrate (1 µM) relative to MBP (% of rate with MBP) for human GST-SAPK2b (protein) MSGPRAGFYRQELNKTVWEVPQRLQGLRPVGSGAYGSVCSAYDARLRQKVAVKKLSRPFQSLIHARRTYRELRLLKHLKHENVIGLLDVFTPATSIEDFSEVYLVTTLMGADLNNIVKCQALSDEHVQFLVYQLLRGLKYIHSAGIIHRDLKPSNVAVNEDCELRILDFGLARQADEEMTGYVATRWYRAPEIMLNWMHYNQTVDIWSVGCIMAELLQGKALFPGSDYIDQLKRIMEVVGTPSPEVLAKISSEHARTYIQSLPPMPQKDLSSIFRGANPLAIDLLGRMLVLDSDQRVSAAEALAHAYFSQYHDPEDEPEAEPYDESVEAKERTLEEWKELTYQEVLSFKPPEPPKPPGSLEIEQ
stdout: 83

stdin: Determine from records and report rate of phosphorylation of substrate (1 µM) relative to MBP (% of rate with MBP) for MalE-Mpk2, the Xenopus homologue of SAPK2a (protein) MSSNQSYVFYRQELNKTLWEVPDRYQNLTPVGSGAYGSVCSSFDTRTALRIAVKKLSRPFQSIIHAKRTYRELRLLKHMKHENVIGLLDVFSPAKSFEEFNDVYLVTHLMGADLNNIVKCQKLTDDHVQFLIYQILRGLKYIHSAGIIHRDLKPSNLAVNEDCELKILDFGLARHTDEEMTGYVATRWYRAPEIMLNWMHYNQTVDIWSVGCIMAELLTGRTLFPGTDHIDQLKLILRLVGTPEPELLQKISSEAARNYIQSLPYMPKMNFEDVFLGANPQAVDLLEKMLVLDTDKRITAAEALAHSYFAQYHDPDDEPIAEPYDQSFESRELDIEEWKRLTYEEVTCFVPPPLDSEEMES
stdout: 90

Okay, next one:
stdin: Determine from records and report rate of phosphorylation of substrate (1 µM) relative to MBP (% of rate with MBP) for rat GST-SAPK3 (protein) MSSPPPARKGFYRQEVTKTAWEVRAVYQDLQPVGSGAYGAVCSAVDSRTGNKVAIKKLYRPFQSELFAKRAYRELRLLKHMRHENVIGLLDVFTPDETLDDFTDFYLVMPFMGTDLGKLMKHETLSEDRIQFLVYQMLKGLKYIHAAGVIHRDLKPGNLAVNEDCELKILDFGLARQADSEMTGYVVTRWYRAPEVILNWMRYTQTVDIWSVGCIMAEMITGKILFKGNDHLDQLKEIMKVTGTPPPEFVQKLQSAEAKNYMEGLPELEKKDFASVLTNASPQAVNLLEKMLVLDAEQRVTAAEALAHPYFESLRDTEDEPKAQKYDDSFDDVDRTLEEWKRVTYKEVLSFKPPRQLGARVPKETAL
stdout: 25
